So I've got a bunch of compounds here, and I need their AKT1 E17K IC50: Selectivity vs AKT1 WT values.
target: AKT1 E17K (Homo sapiens (Human), UniProt P31749, E17K); experiment: Live cell target engagement (NanoBRET) in HEK293 cells; assay type: cell-based
Sequence (P31749 whole entry E17K): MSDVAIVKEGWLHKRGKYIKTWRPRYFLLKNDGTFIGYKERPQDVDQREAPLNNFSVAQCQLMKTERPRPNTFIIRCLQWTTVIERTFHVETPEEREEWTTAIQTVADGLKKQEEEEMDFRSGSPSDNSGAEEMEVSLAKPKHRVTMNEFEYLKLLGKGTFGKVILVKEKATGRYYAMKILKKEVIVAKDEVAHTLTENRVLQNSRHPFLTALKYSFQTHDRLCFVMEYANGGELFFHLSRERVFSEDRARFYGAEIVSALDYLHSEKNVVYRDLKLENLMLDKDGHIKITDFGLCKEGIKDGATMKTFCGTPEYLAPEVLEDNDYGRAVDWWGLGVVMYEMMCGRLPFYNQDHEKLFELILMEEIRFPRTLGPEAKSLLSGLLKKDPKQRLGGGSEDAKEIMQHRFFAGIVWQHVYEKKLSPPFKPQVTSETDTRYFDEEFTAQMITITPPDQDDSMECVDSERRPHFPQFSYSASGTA
One number for each entry.

Below are worked cases with known answers.
CC1(c2ccc3nc(-c4cccnc4N)n(-c4ccc(CNC(=O)Cc5ccc(C=O)c(O)c5)cc4)c3n2)CC1 : 6.1
CC(=O)Nc1cc(CCNCc2ccc(-n3c(-c4cccnc4N)nc4cccnc43)cc2)ccc1C=O : 2.5
Nc1ncccc1-c1nc2ccc(-c3ccccc3)nc2n1-c1ccc(CNCCc2ccc(C=O)c(O)c2F)cc1 : 1.3

Each compound below has a reported value. Please supply its AKT1 E17K IC50: Selectivity vs AKT1 WT.
1. Nc1ncccc1-c1nc2ccc(-c3ccccc3)nc2n1-c1ccc(C(=O)NCc2ccc(O)c(C=O)c2)cc1
2. Nc1ncccc1-c1nc2ccc(-c3ccccc3)nc2n1-c1ccc(C2(NCCc3ccc(C=O)c(O)c3)CCC2)cc1

Response:
1: 3; 2: 2.3

###

target: AKT1 E17K (Homo sapiens (Human), UniProt P31749, E17K); experiment: Live cell target engagement (NanoBRET) in HEK293 cells; format: cell-based
quantityKind: AKT1 E17K IC50: Selectivity vs AKT1 WT
One number for each entry.

Nc1ncccc1-c1nc2ccc(-c3ccccc3)nc2n1-c1ccc(CN2CCC(c3ccc(O)c(C=O)c3)CC2)cc1 [Compound 136] : 1.3
Nc1ncccc1-c1nc2ccc(-c3cccc(N4CCOCC4)c3)nc2n1-c1ccc(CNC(=O)c2ccc(O)c(C=O)c2)cc1 [Example 20] : 2
CC(=O)Nc1cc(CCNCc2ccc(-n3c(-c4cccnc4N)nc4ccc(-c5ccccc5)nc43)cc2)ccc1C=O [Compound 110] : 1.2
Nc1ncccc1-c1nc2ccc(C3CC3)nc2n1-c1ccc(CNC(=O)C(F)c2ccc(C=O)c(O)c2)cc1 (centres unmarked) [Compound 26] : 2.4
Nc1ncccc1-c1nc2ccc(-c3ccccc3)nc2n1-c1ccc(C(=O)NCC#Cc2ccc(C=O)c(O)c2)cc1 [Compound 104] : 0.72

Each molecule below has a reported value. Please supply its AKT1 E17K IC50: Selectivity vs AKT1 WT.
1. Nc1ncccc1-c1nc2ccc(-c3ccccc3)nc2n1-c1ccc(CNCCc2ccc(C=O)c(O)c2)cc1 [Compound 133]
2. Nc1ncccc1-c1nc2ccc(-c3ccccc3)nc2n1-c1ccc(C2(NC(=O)Cc3ccc(C=O)c(O)c3F)CC2)cc1 [Compound 31]
3. CC(=O)Nc1cc(CC(=O)NCc2ccc(-n3c(-c4cccnc4N)nc4cccnc43)cc2)ccc1C=O [Compound 91]

Response:
1.4
1.4
5

Each molecule below has a reported value. Please supply its AKT1 E17K IC50: Selectivity vs AKT1 WT.
1. Nc1ncccc1-c1nc2ccc(-c3ccccc3)nc2n1-c1ccc(CNC(=O)Cc2ccc(C=O)c(O)c2F)cc1 [Compound 94]
2. Nc1ncccc1-c1nc2ccc(C3CC3)nc2n1-c1ccc(CNC(=O)Cc2ccc(C=O)c(O)c2Cl)cc1 [Example 22]
3. Nc1ncccc1-c1nc2cccnc2n1-c1ccc(CNC(=O)Cc2ccc(C=O)c(O)c2F)cc1 [Compound 93]
4. CC(C)(O)c1ccc2nc(-c3cccnc3N)n(-c3ccc(CNC(=O)Cc4ccc(C=O)c(O)c4)cc3)c2n1 [Example 17]

Response:
1. 2.5
2. 3.1
3. 3.9
4. 10

Each molecule below has a reported value. Please supply its AKT1 E17K IC50: Selectivity vs AKT1 WT.
1. Nc1ncccc1-c1nc2cc(-c3ccccc3)cnc2n1-c1ccc(CNCCc2ccc(C=O)c(O)c2)cc1 [Compound 124]
2. CC(NCCc1ccc(O)c(C=O)c1)c1ccc(-n2c(-c3cccnc3N)nc3ccc(-c4ccccc4)nc32)cc1 (centres unmarked) [Compound 126]

Response:
1: 3.1; 2: 5

###

target: AKT2 (Homo sapiens (Human), UniProt P31751); assay: Live cell target engagement (NanoBRET) in HEK293 cells; assay type: cell-based; settings: HEK293, 2 hours at 37° C.
Sequence (P31751 whole entry): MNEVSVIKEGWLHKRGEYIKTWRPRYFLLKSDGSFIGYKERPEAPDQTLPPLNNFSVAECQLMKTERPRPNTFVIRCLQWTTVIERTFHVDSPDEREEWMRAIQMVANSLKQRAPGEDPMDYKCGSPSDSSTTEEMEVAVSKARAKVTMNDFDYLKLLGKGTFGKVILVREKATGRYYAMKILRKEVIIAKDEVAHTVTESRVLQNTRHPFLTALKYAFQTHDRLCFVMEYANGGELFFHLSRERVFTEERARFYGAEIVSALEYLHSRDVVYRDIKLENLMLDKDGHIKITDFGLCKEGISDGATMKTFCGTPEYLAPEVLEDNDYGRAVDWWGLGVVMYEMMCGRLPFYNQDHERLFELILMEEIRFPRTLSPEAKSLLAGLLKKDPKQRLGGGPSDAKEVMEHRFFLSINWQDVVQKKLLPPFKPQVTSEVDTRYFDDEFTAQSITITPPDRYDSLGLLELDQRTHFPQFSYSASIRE
pIC50: −log10 of the molar value.
quantityKind: pIC50

Below are worked cases with known answers.
Nc1ncccc1-c1nc2ccc(N3CCOCC3)nc2n1-c1ccc(CNC(=O)c2ccc(O)c(C=O)c2)cc1 : < 6.30
Nc1ncccc1-c1nc2ccc(-c3cccc(N4CCOCC4)c3)nc2n1-c1ccc(CCNCc2ccc(C=O)c(O)c2)cc1 : > 7.00

Each compound below has a reported value. Please supply its pIC50.
1. Nc1ncccc1-c1nc2ccc(-c3ccccc3)nc2n1-c1ccc(CNCCCc2ccc(C=O)c(O)c2)cc1
2. CN(C)C(=O)Nc1cc(CC(=O)NCc2ccc(-n3c(-c4cccnc4N)nc4cccnc43)cc2)ccc1C=O

Response:
1. 6.30 to 7.00
2. < 6.30

###

target: AKT1 E17K (Homo sapiens (Human), UniProt P31749, E17K); assay: Live cell target engagement (NanoBRET) in HEK293 cells; assay type: cell-based
So I've got a bunch of compounds here, and I need their AKT1 E17K IC50: Selectivity vs AKT1 WT values.

Nc1ncccc1-c1nc2ccc(-c3ccccc3)nc2n1-c1ccc(CCNC(=O)c2ccc(C=O)c(O)c2)cc1 : 0.83
Nc1ncccc1-c1nc2ccc(-c3ccnc(N4CCOCC4)c3)nc2n1-c1ccc(CNC(=O)Cc2ccc(C=O)c(O)c2)cc1 : 10
Nc1ncccc1-c1nc2ccc(C3CC3C(=O)N3CCOCC3)nc2n1-c1ccc(CNC(=O)Cc2ccc(C=O)c(O)c2)cc1 (stereo not shown) : 8.7

Each compound below has a reported value. Please supply its AKT1 E17K IC50: Selectivity vs AKT1 WT.
1. Nc1ncccc1-c1nc2ccc(-n3cccn3)nc2n1-c1ccc(CNC(=O)Cc2ccc(C=O)c(O)c2)cc1
2. Nc1ncccc1-c1nc2ccc(-c3ccccc3)nc2n1-c1ccc(CNC(=O)CCc2ccc(C=O)c(O)c2)cc1
3. Nc1ncccc1-c1nc2ccc(-c3ccccc3)nc2n1-c1ccc(CNCCc2ccc(O)c(C=O)c2)cc1
4. CN(C(=O)CCc1ccc(C=O)c(O)c1)c1ccc(-n2c(-c3cccnc3N)nc3ccc(-c4ccccc4)nc32)cc1

Response:
1: 3.4; 2: 0.47; 3: 0.16; 4: 1.9

###

molecular target: AKT1 E17K (Homo sapiens (Human), UniProt P31749, E17K); test: Live cell target engagement (NanoBRET) in HEK293 cells; format: cell-based
So I've got a bunch of compounds here, and I need their AKT1 E17K IC50: Selectivity vs AKT2 values.
Answers are plain numbers.

Nc1ncccc1-c1nc2ccc(-c3ccccc3)nc2n1-c1ccc(CNC(=O)CCc2ccc(C=O)c(O)c2)cc1 : 2
Nc1ncccc1-c1nc2ccc(-c3cccc(N4CCOCC4)c3)nc2n1-c1ccc(CNC(=O)c2cc(F)c(O)c(C=O)c2)cc1 : 5.2
Nc1ncccc1-c1nc2cccnc2n1-c1ccc(CNCCc2ccc(C=O)c(O)c2)cc1 : 14

// next entry
# AKT1 E17K IC50: Selectivity vs AKT2 of "Nc1ncccc1-c1nc2ccc(-c3cccc(N4CCOCC4)c3)nc2n1-c1ccc(CNC(=O)Cc2ccc(C=O)c(O)c2F)cc1" = 4.8

###

biological target: UniProtKB P31749; experiment: Live cell target engagement (NanoBRET) in HEK293 cells; format: cell-based; conditions: HEK293, 2 hours at 37° C.
quantityKind: IC50

Below are worked cases with known answers.
Nc1ncccc1-c1nc2ccc(-c3ccccc3)nc2n1-c1ccc(CNC(=O)c2ccc(C=O)c(O)c2)cc1 : < 100 nM
Nc1ncccc1-c1nc2cccnc2n1-c1ccc(CNC(=O)Cc2ccc(C=O)c(O)c2)cc1 : < 100 nM
Nc1ncccc1-c1nc2cccnc2n1-c1ccc(CNC(=O)c2ccc(C=O)c(O)c2)cc1 : 100 to 500 nM

Each compound below has a reported value. Please supply its IC50.
1. Nc1ncccc1-c1nc2cccnc2n1-c1ccc(CNC(=O)Cc2ccc(C=O)c(O)c2F)cc1
2. Nc1ncccc1-c1nc2ccc(-c3ccccc3)nc2n1-c1ccc(N2CC(NCc3ccc(C=O)c(O)c3)C2)cc1
3. Nc1ncccc1-c1nc2ccc(-c3ccccc3)nc2n1-c1ccc(CNC(=O)Cc2ccc(C=O)c(O)c2F)cc1
4. Nc1ncccc1-c1nc2ccc(-c3ccccc3)nc2n1-c1ccc(CNCCc2cc(O)c(C=O)c(F)c2)cc1
5. CC(=O)Nc1cc(CC(=O)NCc2ccc(-n3c(-c4cccnc4N)nc4cccnc43)cc2)ccc1C=O
6. Nc1ncccc1-c1nc2ccc(-c3ccccc3)nc2n1-c1ccc(C(=O)NCc2ccc(C=O)c(O)c2)cc1
7. CC(NCCc1ccc(O)c(C=O)c1)c1ccc(-n2c(-c3cccnc3N)nc3ccc(-c4ccccc4)nc32)cc1 (stereo not shown)

Response:
1. 100 to 500 nM
2. 100 to 500 nM
3. < 100 nM
4. < 100 nM
5. 100 to 500 nM
6. < 100 nM
7. < 100 nM

Each compound below has a reported value. Please supply its IC50.
1. C[C@@H](NCCc1ccc(O)c(C=O)c1)c1ccc(-n2c(-c3cccnc3N)nc3ccc(-c4ccccc4)nc32)cc1
2. Nc1ncccc1-c1nc2cccnc2n1-c1ccc(CNC(=O)C(F)c2ccc(C=O)c(O)c2)cc1 (stereo not shown)
3. Nc1ncccc1-c1nc2ccc(-c3cccc(N4CCC(N5CCCC5=O)CC4)c3F)nc2n1-c1ccc(CNC(=O)Cc2ccc(C=O)c(O)c2)cc1

Response:
1. > 500 nM
2. < 100 nM
3. < 100 nM

Where these numbers come from: patent US20250115600A1
